Tested on: Streptococcus pneumoniae 1175
Assay type: cell-based
reported-conditions: S. pneumoniae 1175 (mefA); microtiter broth dilution
readout-type: MIC S. pneumo. 1175 (µg/mL)
Form entry: value (µg/mL) — number only.

Here are 3 compounds together with their reported answers.
1. CC[C@H]1OC(=O)[C@H](C)C(=O)[C@H](C)[C@@H](O[C@@H]2O[C@H](C)C[C@H](N(C)C)[C@H]2O)[C@](C)(OC)C[C@@H](C)C(=O)[C@H](C)[C@H]2N(C3CCN(Cc4cccc5[nH]cnc45)C3)C(=O)O[C@]12C.O=CO (some centres unmarked) [Example 8.01, (1H-benzo[d]imidazo-4-yl)methyl] :: 0.25
2. CC[C@H]1OC(=O)[C@H](C)C(=O)[C@H](C)[C@@H](O[C@@H]2O[C@H](C)C[C@H](N(C)C)[C@H]2O)[C@](C)(OC)C[C@@H](C)C(=O)[C@H](C)[C@H]2N(CC3(O)CN(C(=O)c4ccc(-n5cccn5)nc4)C3)C(=O)O[C@]12C.O=CO :: 0.12
3. CCC1OC(=O)C(C)C(=O)C(C)C(OC2OC(C)CC(N(C)C)C2O)C(C)(OC)CC(C)C(=O)C(C)C2N(CC3CCN(Cc4ccc(-c5ccccn5)cc4)C3)C(=O)OC12C (centres unmarked) :: 0.5

Observed MIC S. pneumo. 1175, Streptococcus pneumoniae 1175, CC[C@H]1OC(=O)[C@H](C)C(=O)[C@H](C)[C@@H](O[C@@H]2O[C@H](C)C[C@H](N(C)C)[C@H]2O)[C@](C)(OC)C[C@@H](C)C(=O)[C@H](C)[C@H]2N(CC3(C)CN(C(=O)c4cc5cccnc5[nH]4)C3)C(=O)O[C@]12C : 0.25

Observed MIC S. pneumo. 1175, Streptococcus pneumoniae 1175, CCC1OC(=O)C(C)C(=O)C(C)C(OC2OC(C)CC(N(C)C)C2O)C(C)(OC)CC(C)C(=O)C(C)C2N(CC3C4CN(C(=O)c5cc(F)ccc5F)CC43)C(=O)OC12C (centres unmarked) : 0.5
